Values compiled from ChEMBL document CHEMBL1136283.

test: Inhibitory activity against beta-glucosidase in almond; parameters: species or system Prunus dulcis
T if IC50 is below 4000 nM. F if not; exact matches included in F.

molecule: CCCCCCCCN[C@H]1CC(C)[C@@H](O)C(O)[C@@H]1O (some centres undefined)
category-label: F
//
molecule: CCCCCCCCCCNC1CC(C)C(O)C(O)C1O (centres undefined)
category-label: T
//
molecule: CC1C[C@H](NCCCCc2ccccc2)[C@@H](O)C(O)[C@@H]1O (some centres undefined)
category-label: F
//
molecule: CCCCCCNC1CC(C)C(O)C(O)C1O (centres undefined)
category-label: T
//
molecule: C[C@@H]1CC(NCCc2ccccc2)[C@@H](O)[C@@H](O)[C@@H]1O (stereo in doubt)
category-label: T

Q: Just wondering, is IC50 of CCCCCCCCCCN[C@H]1CC(C)[C@@H](O)C(O)[C@@H]1O (some centres undefined) below 4000 nM?
A: F

Q: Field entry: CCCCCCCCCCCCN[C@H]1CC(C)[C@@H](O)C(O)[C@@H]1O (some centres undefined)
A: T

Q: Field entry: CCCCCCCCNC1CC(C)C(O)C(O)C1O (centres undefined)
A: T

Q: Field entry: CC1CC(NCCCCc2ccccc2)C(O)C(O)C1O (centres undefined)
A: T
